target: SIK2 kinase (full length, Thermo Fisher) (Homo sapiens, UniProt Q9H0K1); construct: SIK2 kinase (full length, Thermo Fisher); purchased Thermo Fisher; experiment: Biochemical activities determination for SIK2 protein (TR-FRET); details: 80 uM ATP, 0.5 μM substrate
Sequence (Q9H0K1 whole entry): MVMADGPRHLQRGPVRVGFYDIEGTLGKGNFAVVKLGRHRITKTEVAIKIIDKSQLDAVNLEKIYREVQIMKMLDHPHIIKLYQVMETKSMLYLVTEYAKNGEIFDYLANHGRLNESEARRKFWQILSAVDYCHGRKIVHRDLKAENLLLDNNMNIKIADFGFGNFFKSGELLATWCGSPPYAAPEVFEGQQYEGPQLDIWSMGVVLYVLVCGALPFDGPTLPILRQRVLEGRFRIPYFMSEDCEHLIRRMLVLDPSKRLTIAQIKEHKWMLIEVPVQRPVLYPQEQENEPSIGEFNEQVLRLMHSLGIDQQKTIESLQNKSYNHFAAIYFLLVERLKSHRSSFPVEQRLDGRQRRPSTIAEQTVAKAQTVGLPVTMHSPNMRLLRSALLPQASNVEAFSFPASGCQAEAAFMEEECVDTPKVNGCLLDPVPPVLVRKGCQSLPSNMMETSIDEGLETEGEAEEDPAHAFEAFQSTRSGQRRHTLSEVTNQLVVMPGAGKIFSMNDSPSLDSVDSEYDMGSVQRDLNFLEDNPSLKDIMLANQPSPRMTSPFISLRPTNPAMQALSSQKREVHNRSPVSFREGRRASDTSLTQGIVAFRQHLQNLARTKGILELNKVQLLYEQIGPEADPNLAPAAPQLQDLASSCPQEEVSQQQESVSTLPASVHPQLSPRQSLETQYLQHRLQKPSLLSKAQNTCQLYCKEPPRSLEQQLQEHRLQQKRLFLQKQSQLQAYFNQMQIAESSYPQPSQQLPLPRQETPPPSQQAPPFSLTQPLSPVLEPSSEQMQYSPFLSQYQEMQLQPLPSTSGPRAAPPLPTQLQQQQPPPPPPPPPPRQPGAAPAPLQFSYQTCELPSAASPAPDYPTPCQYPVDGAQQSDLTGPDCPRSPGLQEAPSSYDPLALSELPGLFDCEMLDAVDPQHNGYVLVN
measurement type: IC50 (nM)

Previously resolved entries follow.
compound: COc1cc(-c2coc3cc(OCCN4CCCC4)ccc23)cc(OC(F)F)c1C(=O)NC1CCCCC1 [Compound 127]
study system: SIK2 kinase (full length, Thermo Fisher) (Homo sapiens, UniProt Q9H0K1)
quantitative readout: 619
--
compound: COc1cc(-c2coc3cc(-c4cnn(C)c4)ccc23)cc(OC)c1-c1nnc(C)o1 [Compound 34]
study system: SIK2 kinase (full length, Thermo Fisher) (Homo sapiens, UniProt Q9H0K1)
quantitative readout: 239
--
compound: CNc1cc(-c2coc3cc(OCCN4CCCC4)ccc23)cc(OC(F)F)c1C(=O)NC1CC1 [Compound 122]
study system: SIK2 kinase (full length, Thermo Fisher) (Homo sapiens, UniProt Q9H0K1)
quantitative readout: 45
--
compound: COc1cc(-c2coc3cc(-c4cnn(C5CC5)c4)ccc23)cc2c1C(=O)N(CC(F)(F)F)CC2 [Example 4]
study system: SIK2 kinase (full length, Thermo Fisher) (Homo sapiens, UniProt Q9H0K1)
quantitative readout: 37
--
compound: COc1cc(-c2coc3cc(OCCN4CCCC4)ccc23)cc(OC(F)F)c1C(=O)N[C@H]1CCCC[C@H]1O [Compound 125]
study system: SIK2 kinase (full length, Thermo Fisher) (Homo sapiens, UniProt Q9H0K1)
quantitative readout: 385

(P) COc1cc(-c2coc3cc(OCCN4CCCC4)ccc23)cc(OC(F)F)c1C(=O)N[C@H]1C[C@@H]1F [Compound 99]
(Q) O=C1c2c(cc(-c3coc4cc(-c5cnn(C6CCNC6)c5)ccc34)cc2OC(F)F)CCN1CC(F)(F)F (stereo not shown) [Compound 48]
Ask: Identify the item whose IC50 is the smaller number: P or Q API: response body contains the label of the selected item.
Reply: Q

====

biological target: SIK2 kinase (full length, Thermo Fisher) (Homo sapiens, UniProt Q9H0K1); construct: SIK2 kinase (full length, Thermo Fisher); purchased Thermo Fisher; experiment: Biochemical activities determination for SIK2 protein (TR-FRET); conditions: 80 uM ATP, 0.5 μM substrate
measurement type: IC50 (nM)

Solved entries:
molecule: COc1cc(-c2coc3cc(-c4cc(C)n[nH]4)ccc23)cc2c1C(=O)N(CC(F)(F)F)CC2
IC50, nM: 33

molecule: COc1cc(-c2coc3cc(-c4cnn(C)c4)ccc23)cc2c1C(=O)N(CC(F)(F)F)[C@H](C)C2 [Compound 29B]
IC50, nM: 178

molecule: COc1cc(-c2coc3cc(OCCN4CCOCC4)ccc23)cc(OC(F)F)c1C(=O)N[C@@H]1C[C@@H]1F
IC50, nM: 41

(1) COc1cc(-c2coc3cc(-c4cnn(C5CCN(C)CC5)c4)ccc23)cc2c1C(=O)N(CC(F)(F)F)CC2
(2) COc1cc(-c2coc3cc(OCCN4CCCC[C@H]4C)ccc23)cc(OC(F)F)c1C(=O)N[C@@H]1C[C@@H]1F
(3) COc1cc(-c2coc3cc(OCCN4CCOCC4)ccc23)cc2c1C(=O)N(CC(F)(F)F)CC2
(4) CN1CCC(n2cc(-c3ccc4c(-c5cc6c(c(OC(F)F)c5)C(=O)N(CC(F)(F)F)CC6)coc4c3)cn2)CC1
Ask: Rank order required: IC50, descending. Provide the labels, sequenced as the question asks.
Reply: 3, 2, 4, 1
(3: 167 nM, 2: 32 nM, 4: 7.8 nM, 1: 4.9 nM)

====

target: SIK1 kinase (aa1-303, Thermo Fisher) (Homo sapiens); construct: SIK1 kinase (aa1-303, Thermo Fisher); purchased Thermo Fisher; assay: Biochemical activities determination for SIK1 protein (TR-FRET); settings: 110 uM ATP, 0.5 μM STK1 substrate
Sequence (P57059 1-303): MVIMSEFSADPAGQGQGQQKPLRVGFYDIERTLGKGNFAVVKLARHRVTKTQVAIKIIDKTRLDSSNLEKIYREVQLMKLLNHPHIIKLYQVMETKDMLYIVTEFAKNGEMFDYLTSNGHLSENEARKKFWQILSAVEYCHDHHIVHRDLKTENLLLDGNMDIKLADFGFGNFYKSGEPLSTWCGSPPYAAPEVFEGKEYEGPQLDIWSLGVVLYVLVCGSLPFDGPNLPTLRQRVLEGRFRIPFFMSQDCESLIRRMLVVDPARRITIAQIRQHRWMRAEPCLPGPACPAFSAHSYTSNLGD
measurement type: IC50 (nM)

compound: COc1cc(-c2coc3cc(OCCN4CC[C@@H](F)C4)ccc23)cc(OC(F)F)c1C(=O)N[C@@H]1C[C@@H]1F
IC50 / nM: 1380

compound: NC1CCN(c2cccc3ccc(-c4coc5cc(OCCN6CCOCC6)ccc45)nc23)CC1
IC50 / nM: 958

compound: COc1cc(-c2coc3cc(OCCN4CC[C@H](F)C4)ccc23)cc(OC(F)F)c1C(=O)N[C@@H]1C[C@@H]1F
IC50 / nM: 1130

(P) O=C1c2c(cc(-c3coc4cc(-c5cnn(C6CCNCC6)c5)ccc34)cc2OC(F)F)CCN1CC(F)(F)F
(Q) COc1cc(-c2coc3cc(-c4cnn(C)c4)ccc23)cc2c1C(=O)N(CC(F)(F)F)CC2
Ask: Would you mind telling me which has the lower recorded IC50 between P and Q ? Reply with the label of the item you choose.
Reply: Q

(I) COc1cc(-c2coc3cc(OCCN4CCOCC4)ccc23)cc(OC(F)F)c1C(=O)N[C@@H]1C[C@@H]1F
(II) CN1CCC(n2cc(-c3ccc4c(-c5cc6c(c(OC(F)F)c5)C(=O)N(CC#N)CC6)coc4c3)cn2)C1 (stereo not drawn)
(III) COc1cc(-c2coc3cc(-c4cnn(C)c4)ccc23)cc(OC)c1-c1nnc(C2CC2)o1
(IV) COc1cc(-c2coc3cc(-c4cnn(C)c4)ccc23)cc(OC(F)F)c1C(=O)NCC(F)(F)F
Ask: Endpoint returns the given compounds ordered by ascending IC50. Your reply should list the labels following the order given in the request.
Reply: IV, II, I, III

(1) COc1cc(-c2coc3cc(OCCN4CCC(C(F)(F)F)C4)ccc23)cc(OC(F)F)c1C(=O)N[C@@H]1C[C@@H]1F (stereo partly drawn)
(2) COc1cc(-c2coc3cc(-c4cn(C)nc4OC)ccc23)cc2c1C(=O)N(CC(F)(F)F)CC2
Ask: Would you mind telling me which has the lower recorded IC50 between 1 and 2 ? Your choice should be expressed through its label.
Reply: 1
(1: 1010 nM, 2: 3130 nM)

(P) COc1cc(-c2coc3cc(OCCN4CCC[C@H]4C)ccc23)cc(OC(F)F)c1C(=O)N[C@@H]1C[C@@H]1F
(Q) COc1cc(-c2coc3cc(OCCN4CC[C@@H](C)C4)ccc23)cc(OC(F)F)c1C(=O)N[C@@H]1C[C@@H]1F
(R) COc1cc(-c2coc3cc(-c4cnn(C)c4)ccc23)cc2c1C(=O)N(C1CC1)CC2
Ask: Provide the items ranked by increasing IC50. Put the labels in the requested order and write them down.
Reply: R, Q, P
(R: 1130 nM, Q: 1890 nM, P: 3370 nM)

====

target: SIK3 kinase (aa59-365, Thermo Fisher) (Homo sapiens); construct: SIK3 kinase (aa59-365, Thermo Fisher); purchased Thermo Fisher; assay: Biochemical activities determination for SIK3 protein (TR-FRET); conditions: 125 uM ATP, 0.5 μM STK1 substrate
Sequence (Q9Y2K2 59-365): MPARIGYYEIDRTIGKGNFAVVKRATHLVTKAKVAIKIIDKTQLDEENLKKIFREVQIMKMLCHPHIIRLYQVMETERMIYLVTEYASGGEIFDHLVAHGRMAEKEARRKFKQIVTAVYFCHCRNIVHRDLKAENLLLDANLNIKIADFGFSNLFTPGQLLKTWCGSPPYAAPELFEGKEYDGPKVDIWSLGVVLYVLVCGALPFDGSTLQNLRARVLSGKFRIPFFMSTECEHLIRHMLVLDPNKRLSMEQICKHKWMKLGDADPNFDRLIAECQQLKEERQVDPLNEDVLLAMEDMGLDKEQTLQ
measurement type: IC50 (nM)

(P) COc1cc(-c2coc3cc(-c4cnn(C)c4)ccc23)cc(OC(F)F)c1C(=O)NCC(F)(F)F
(Q) COc1cc(-c2coc3cc(OCC4CCCN4C)ccc23)cc2c1C(=O)N(CC(F)(F)F)CC2 (stereo not drawn)
(R) COc1cc(-c2coc3cc(OCCN(C)C)ccc23)cc(OC(F)F)c1C(=O)N[C@@H]1C[C@@H]1F
(S) COc1cc(-c2coc3cc(-c4cnn(C5CN(C)C5)c4)ccc23)cc(OC(F)F)c1C(=O)N[C@@H]1C[C@@H]1F
(T) CN1CC(n2cc(-c3ccc4c(-c5cc6c(c(OC(F)F)c5)C(=O)N(CC#N)CC6)coc4c3)cn2)C1
Ask: Order the entries above from lowest to highest IC50. Return value: ordered labels per request.
Reply: S, T, P, R, Q
(S: 4.2 nM, T: 17 nM, P: 26 nM, R: 65 nM, Q: 322 nM)

(1) CCOc1cc(-c2coc3cc(OCCN4CCCC4)ccc23)cc(OC(F)F)c1C(=O)NC1CC1
(2) COc1cc(-c2coc3cc(OCCN4CCC(C)CC4)ccc23)cc(OC(F)F)c1C(=O)N[C@@H]1C[C@@H]1F
Ask: // compare: 1 vs 2 , metric IC50, want the smaller Give the label under which the chosen entry appears.
Reply: 2

(P) COc1cc(-c2coc3cc(OCCN4CCCC[C@@H]4C)ccc23)cc(OC(F)F)c1C(=O)N[C@@H]1C[C@@H]1F
(Q) COc1cc(-c2coc3cc(OCCN4CCCC4)ccc23)cc(OC(F)F)c1C(=O)N[C@H]1C[C@H]1F
Ask: Form: Entry with minimum IC50 (choose one): P / Q Use the label to indicate which entry you chose.
Reply: P
(P: 74 nM, Q: 525 nM)

(I) O=C1c2c(cc(-c3coc4cc(-c5cnn(C6CCNC6)c5)ccc34)cc2OC(F)F)CCN1CC(F)(F)F (stereo not drawn)
(II) COc1cc(-c2coc3cc(OCCN4CCOCC4)ccc23)cc2c1C(=O)N(CC(F)(F)F)CC2
Ask: Lower value of IC50 belongs to which: I or II ? Response format: the label of the selected entry.
Reply: I
